# experiment: photophysical properties
# Assay type: physicochemical
# statedConditions: MeOH, 20 μM sample, excited at λmax
experimentalReadout: λemi (nm)

Exercise: Given CO[B-]1(OC)N2C=C(I)C=CC2=N[N+]1=C(C)C , state its recorded λemi.
Solution: 476

Exercise: Quick one: λemi for C#CC1=CN2C(=N[N+](=Cc3ccc(-c4cccs4)cc3)[B-]2(F)F)C=C1 ?
Solution: 572

Exercise: Which λemi is listed for F[B-]1(F)N2C=C(n3cc(-c4ccccc4)nn3)C=CC2=N[N+]1=Cc1ccc(-c2cccs2)cc1 ?
Solution: 572

Exercise: Reported λemi, compound CC(C)=[N+]1N=C2C=CC(I)=CN2[B-]1(F)F : ____
Solution: 496

Exercise: Given the compound F[B-]1(F)N2C=CC=CC2=N[N+]1=Cc1ccc(-c2cccs2)cc1 , what is its reported λemi?
Solution: 551

Exercise: Find the recorded λemi belonging to CO[B-]1(OC)N2C=C(Br)C=CC2=N[N+]1=C(C)C and report it.
Solution: 492

Exercise: Which value of λemi has been reported for F[B-]1(F)N2C=C(Br)C=CC2=N[N+]1=Cc1ccc(-c2cccs2)cc1 in the records?
Solution: 562

Exercise: Query: λemi; subject: F[B-]1(F)N2C=C(Br)C=CC2=N[N+]1=Cc1ccccc1
Solution: 539

Exercise: Bench note: what λemi did CC(C)=[N+]1N=C2C=CC(Br)=CN2[B-]1(F)F show?
Solution: 493

Exercise: If you can, please state the reported λemi value of F[B-]1(F)N2C=C(Cl)C=CC2=N[N+]1=Cc1ccc(-c2cccs2)cc1 .
Solution: 563

----------
# experiment: photophysical properties
# Type: physicochemical
# statedConditions: MeOH, 20 μM sample
experimentalReadout: Φf

Use these answered entries as a reference point.
Exercise: Consider the compound CO[B-]1(OC)N2C=C(I)C=CC2=N[N+]1=C(C)C and give its measured Φf.
Solution: 0.21

Exercise: Request the reported Φf associated with CC(C)=[N+]1N=C2C=CC(I)=CN2[B-]1(F)F
Solution: 0.20

[A] CO[B-]1(OC)N2C=C(Br)C=CC2=N[N+]1=C(C)C
[B] F[B-]1(F)N2C=C(Br)C=CC2=N[N+]1=Cc1ccccc1
[C] F[B-]1(F)N2C=CC=CC2=N[N+]1=Cc1ccc(-c2cccs2)cc1
Exercise: rank_up(items): orders items by reported Φf in ascending numerical order. Response format: the labels, sorted as the prompt asks.
Solution: A, B, C
(A: 0.21, B: 0.31, C: 0.75)

----------
List of ε values.
# experiment: photophysical properties
# Type: physicochemical
# statedConditions: MeOH, 20 μM sample

Use these answered entries as a reference point.
Exercise: For the compound shown here, CC(C)=[N+]1N=C2C=CC(Br)=CN2[B-]1(F)F , give the reported ε.
Solution: 8 500 M^−1cm^−1

Exercise: Fill in: ε of F[B-]1(F)N2C=C(n3cc(-c4ccccc4)nn3)C=CC2=N[N+]1=Cc1ccc(-c2cccs2)cc1 is ___
Solution: 33 800 M^−1cm^−1

Exercise: For the compound shown here, CO[B-]1(OC)N2C=C(Br)C=CC2=N[N+]1=C(C)C , give the reported ε.
Solution: 12 000 M^−1cm^−1

New cases:
Exercise: Value lookup for ε; key = F[B-]1(F)N2C=C(Br)C=CC2=N[N+]1=Cc1ccccc1
Solution: 22 600 M^−1cm^−1

Exercise: Need ε of CC(C)=[N+]1N=C2C=CC(I)=CN2[B-]1(F)F , thanks.
Solution: 8 300 M^−1cm^−1

Exercise: Which ε is reported for this compound? F[B-]1(F)N2C=CC=CC2=N[N+]1=Cc1ccc(-c2cccs2)cc1
Solution: 28 800 M^−1cm^−1

Sourced from paper PMC3244355
